FYI, the data here is from patent US12435097B2.

Catalogue of IC50 readings, one per entry.
Biological target: Human Arginase 1 (Homo sapiens)
Assay: Human Arginase 1 enzyme inhibition (thioarginine/DTNB absorbance at 412 nm)
Details: recombinant enzyme from E. coli, 5 nM; 30 min pre-incubation, 60 min reaction
Field format: number, assumed nM, no unit text.

1. NCC(=O)N[C@H]1CCN[C@@](CCCCB(O)O)(C(=O)O)C1; 80
2. N[C@H]1CCN[C@@](CCCCB(O)O)(C(=O)O)C1; 3
3. C[C@H](N)C(=O)N[C@H]1CCN[C@@](CCCCB(O)O)(C(=O)O)C1; 35
4. N[C@H]1CCN[C@](CCCCB(O)O)(C(=O)O)C1 (single isomer, unassigned; enantiomer 2) [Example 11]; 3150
5. CC(C)(C)[C@H](N)C(=O)N[C@H]1CCN[C@@](CCCCB(O)O)(C(=O)O)C1; 31
6. CC[C@H](C)[C@H](N)C(=O)N[C@H]1CCN[C@@](CCCCB(O)O)(C(=O)O)C1; 23
7. CC(C)[C@@H](N)C(=O)N[C@H]1CCN[C@@](CCCCB(O)O)(C(=O)O)C1; 234

# context switch: different compound, same IC50
Incoming: Could you share which IC50 value was measured for N[C@H]1CCN[C@](CCCCB(O)O)(C(=O)O)C1 (single isomer, unassigned; enantiomer 1) [Example 10] ?
Outgoing: 20100

* * *

Assay: Bioavailability / pharmacokinetic study in male rats (IV and PO)
Format: in vivo
Conditions: male, rat, plasma, po, 5 mg/kg, PO dosing of Example 4, Example 1 measured when dosed as pro-drug
quantityKind: AUC (µM·h)
Just the number in µM·h, nothing appended.

Incoming: Can you share its AUC? I mean this compound: `N[C@H]1CCN[C@@](CCCCB(O)O)(C(=O)O)C1`
Outgoing: 6.1

* * *

Experiment: Bioavailability / pharmacokinetic study in male rats (IV and PO)
Assay type: in vivo
Details: male, rat, plasma, po, 5 mg/kg, PO 5 mg/kg, pro-drug measured when dosed as pro-drug
Below is a list of entries, each paired with its recorded Cmax value.
Express your answer in nM, writing the number without its unit.

1. CC(C)[C@H](N)C(=O)N[C@H]1CCN[C@@](CCCCB(O)O)(C(=O)O)C1; 350

Incoming: So what's the measured Cmax for this one? `NCC(=O)N[C@H]1CCN[C@@](CCCCB(O)O)(C(=O)O)C1`
Outgoing: 640

* * *

Assay: Bioavailability / pharmacokinetic study in male rats (IV and PO)
Format: in vivo
Conditions: male, rat, plasma, po, 5 mg/kg, PO dosing of Example 3, Example 1 measured when dosed as pro-drug
quantityKind: Tmax (h)
Numbers only here, please. The scale is h.

Incoming: # get_value(readout='Tmax', item= N[C@H]1CCN[C@@](CCCCB(O)O)(C(=O)O)C1 [Example 1] )
Outgoing: 2.5

* * *

Assay: Bioavailability / pharmacokinetic study in male rats (IV and PO)
Type: in vivo
Details: male, rat, plasma, po, 5 mg/kg, PO dosing of Example 4, Example 1 measured when dosed as pro-drug
quantityKind: Cmax (nM)
Enter your answer as a number in nM; do not include the unit.

Incoming: Sample `N[C@H]1CCN[C@@](CCCCB(O)O)(C(=O)O)C1` — what was its Cmax?
Outgoing: 1000

* * *

Assay: Bioavailability / pharmacokinetic study in male rats (IV and PO)
Format: in vivo
Settings: plasma; male rat, IV; Example 1 dosed as payload; read-out: Vdss
quantityKind: Vd (L/kg)
Field: numeric (L/kg). Do not append units.

Incoming: Which value of Vd has been reported for `N[C@H]1CCN[C@@](CCCCB(O)O)(C(=O)O)C1` in the records?
Outgoing: 0.23

* * *

Target: Human Arginase 1 (Homo sapiens, UniProt P05089)
Construct: made in house; host or cells: E. coli
Sequence (P05089 whole entry): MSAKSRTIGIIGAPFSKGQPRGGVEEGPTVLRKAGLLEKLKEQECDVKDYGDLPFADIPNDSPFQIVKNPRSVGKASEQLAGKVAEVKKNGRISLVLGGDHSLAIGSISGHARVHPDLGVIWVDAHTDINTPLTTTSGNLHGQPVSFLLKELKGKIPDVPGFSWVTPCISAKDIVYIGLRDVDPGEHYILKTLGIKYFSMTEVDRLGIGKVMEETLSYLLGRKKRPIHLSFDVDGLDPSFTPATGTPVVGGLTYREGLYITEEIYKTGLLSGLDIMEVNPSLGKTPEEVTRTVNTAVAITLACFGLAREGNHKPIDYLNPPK
Assay: Human Arginase 1 enzyme inhibition (thioarginine/DTNB absorbance at 412 nm)
Format: biochemical
Conditions: recombinant enzyme from E. coli, 5 nM; 30 min pre-incubation, 60 min reaction
quantityKind: IC50 (nM)
Your answer should be a plain number; it is taken to be in nM.

Field: example entries. Status: answers known.
1) CC[C@H](N)C(=O)N[C@H]1CCN[C@@](CCCCB(O)O)(C(=O)O)C1; 25
2) CC(C)C[C@H](N)C(=O)N[C@H]1CCN[C@@](CCCCB(O)O)(C(=O)O)C1; 18
3) N[C@@H]1CCN[C@](CCCCB(O)O)(C(=O)O)C1 (single isomer, unassigned); 2200

Now for another entry.
Incoming: Entry `CC(C)[C@H](N)C(=O)N[C@H]1CCN[C@@](CCCCB(O)O)(C(=O)O)C1` has what IC50?
Outgoing: 29

* * *

Test: Bioavailability / pharmacokinetic study in male rats (IV and PO)
Type: in vivo
Settings: male, rat, plasma, po, 5 mg/kg, PO dosing of Example 4, Example 1 measured when dosed as pro-drug
quantityKind: Tmax
Write the figure, then the unit, nothing else.

Incoming: Bench note: what Tmax did N[C@H]1CCN[C@@](CCCCB(O)O)(C(=O)O)C1 [Example 1] show?
Outgoing: 1.5 h

* * *

Assay: Bioavailability / pharmacokinetic study in male rats (IV and PO)
Assay type: in vivo
Conditions: male, rat, plasma, po, 5 mg/kg, PO dosing of Example 3, Example 1 measured when dosed as pro-drug
quantityKind: Cmax (nM)
Just the number in nM, nothing appended.

Incoming: Any idea what Cmax was measured for `N[C@H]1CCN[C@@](CCCCB(O)O)(C(=O)O)C1` ?
Outgoing: 2000

* * *

Test: Bioavailability / pharmacokinetic study in male rats (IV and PO)
Type: in vivo
Details: male, rat, plasma, po, 5 mg/kg, Example 1 after PO Example 2 vs IV AUC of Example 1 dosed as Example 1, dose normalized
quantityKind: bioavailability (%)
Answer with a number only, understood to be in %.

Incoming: For N[C@H]1CCN[C@@](CCCCB(O)O)(C(=O)O)C1 [Example 1] , what is its reported bioavailability?
Outgoing: 82
